system: U2OS; experiment: Multiplex assay against U2OS; format: toxicity, cell-based; conditions: human, 12 h, 10 µM, compound concentration 10 uM, replicate 2
Readout Kind: Population Membrane Permeable-Phenotype (%)
Give your result in % as a bare value.

Item COc1ncc(-c2ccc3nccc(-c4ccnnc4)c3c2)cc1NS(=O)(=O)c1ccc(F)cc1F with U2OS - Population Membrane Permeable-Phenotype (%)?
11

Also need Cn1cc(-c2[nH]c3cc(NC(=O)[C@H](N)C4CCCCC4)cc4c3c2C=NNC4=O)cn1 , thanks.
21

Also need Cc1csc2c(N[C@@H](C)CN3CCN(S(=O)(=O)c4ccc(Cl)c(Cl)c4)CC3)ncnc12 , thanks.
56

Also need CN1CCC[C@@H]1CCO[C@](C)(c1ccccc1)c1ccc(Cl)cc1.O=C(O)/C=C/C(=O)O [CLEMASTINE FUMARATE] , thanks.
6

Also need C[C@@H](NCCCc1cccc(C(F)(F)F)c1)c1cccc2ccccc12.Cl [CINACALCET HYDROCHLORIDE] , thanks.
33

Also need Cc1nc(-c2cn3c(n2)-c2ccc(-c4cnn(C(C)(C)C(N)=O)c4)cc2OCC3)n(C(C)C)n1 , thanks.
18

Also need CN(C)CC#Cc1ccc(OCCCc2sc(N3CCc4cccc(C(=O)Nc5nc6ccccc6s5)c4C3)nc2C(=O)O)c(F)c1 , thanks.
24

Also need O=C1NCN(c2ccccc2)C12CCN(CCCOc1ccc(F)cc1)CC2 [SPIRAMIDE] , thanks.
2

Also need CCN(CC)CCCCNc1ncc2cc(-c3cc(OC)cc(OC)c3)c(NC(=O)NC(C)(C)C)nc2n1 , thanks.
37

Also need OC1(c2ccc(Cl)cc2)CCN(Cc2c[nH]c3ccccc23)CC1 , thanks.
4

Also need CC(C)(O)CNc1ncc(-c2ccnc(Nc3ccnc(Cl)c3)n2)c(CC2CC2)n1 , thanks.
28

Also need Cc1[nH]c(/C=C2\C(=O)Nc3ccc(S(=O)(=O)N(C)c4cccc(Cl)c4)cc32)c(C)c1C(=O)N1CCN(C)CC1 , thanks.
40

Also need COc1cc(-n2cnc3cc(-c4ccc(Cl)cc4)sc3c2=O)ccc1OCCN1CCCC1 , thanks.
34

Also need C=CC(=O)Nc1cc2c(Nc3ccc(F)c(Cl)c3)ncnc2cc1OCCCN1CCOCC1.Cl.Cl [CANERTINIB DIHYDROCHLORIDE] , thanks.
24

Also need CN1CCCC(n2nc(Cc3ccc(Cl)cc3)c3ccccc3c2=O)CC1.Cl (configuration not stated) [AZELASTINE HYDROCHLORIDE] , thanks.
84

Also need Cc1nc(Nc2n[nH]c3c2CN(C(=O)N[C@H](CN(C)C)c2ccccc2)C3(C)C)c2sccc2n1 , thanks.
12

Also need C=CC(=O)Nc1cccc(C(=O)Nc2ccc(Nc3cc(-c4[nH]c(SC)nc4C)ccn3)cc2)c1 , thanks.
7

Also need CN(C)C(=O)/C(C#N)=C/c1ccc(-c2nc3cnc4[nH]ccc4c3n2C2CCCCC2)o1 , thanks.
13

Also need Cl.N#Cc1ccc2[nH]cc(CCCCN3CCN(c4ccc5oc(C(N)=O)cc5c4)CC3)c2c1 [VILAZODONE HYDROCHLORIDE] , thanks.
38

Also need COc1cccc([C@@H](C)NCCCc2ccccc2Cl)c1.Cl [TECALCET HYDROCHLORIDE] , thanks.
18

Also need CC(C)NCC(O)COc1ccc(CCOCC2CC2)cc1.Cl (configuration not stated) [BETAXOLOL HYDROCHLORIDE] , thanks.
5

Also need c1cn2cc(-c3ccc4cn[nH]c4c3)nc(Nc3ccc(N4CCOCC4)cc3)c2n1 , thanks.
21

Also need Cc1nc(-c2ccc(-c3ccc(C(=O)N4CCc5cc6c(cc54)C4(CCN(C)CC4)CO6)cc3)c(C)c2)no1 , thanks.
54

Also need CN1CCN(c2ccc(OC(F)(F)F)c(Nc3ncc4c(n3)-c3c(c(C(N)=O)nn3CCO)CC4)c2)CC1 , thanks.
0

Also need CN1CCN(CCOc2cc(OC3CCOCC3)c3c(Nc4c(Cl)ccc5c4OCO5)ncnc3c2)CC1 , thanks.
21

Also need CC[C@H](C)C(=O)O[C@H]1C[C@@H](C)C=C2C=C[C@H](C)[C@H](CC[C@@H]3C[C@@H](O)CC(=O)O3)[C@H]21 , thanks.
10

Also need Cc1c(-c2ccc(O)cc2)n(Cc2ccc(OCCN3CCCCCC3)cc2)c2ccc(O)cc12 , thanks.
26

Also need COc1cc2nccc(Oc3ccc(NC(=O)Nc4cc(C)on4)c(Cl)c3)c2cc1OC.O , thanks.
36

Also need Cc1cc(C)cc(-c2cnc3cc(Cl)c(-c4cccc(O)c4)cc3c2OCCCN)c1 , thanks.
90

Also need CN(C)C(=O)N[C@H]1CC[C@H](CCN2CCN(c3cccc(Cl)c3Cl)CC2)CC1.Cl [CARIPRAZINE HYDROCHLORIDE] , thanks.
47

Also need Cc1sc2c(c1C)C(c1ccc(Cl)cc1)=N[C@@H](CC(=O)OC(C)(C)C)c1nnc(C)n1-2 , thanks.
14

Also need CNc1nc(NCc2ccc(NS(C)(=O)=O)cc2Cl)cc(-c2ccccn2)n1 , thanks.
12

The measurements presented in this section are drawn from ChEMBL document CHEMBL4689842.
